- PROTOCOL SUMMARY: Lethal dose of the compound, when administered intraperitoneally in mice
- Assay type: toxicity, organism-based
- SETTINGS: mouse, in vivo, ip
T if LD50 is below 10 µmol/kg. F if not; exact matches included in F.

input: Report whether reported LD50 is lower than 10 µmol/kg (strictly) for OC1CCCC1N1CCC(c2ccccc2)CC1 (configuration not stated)
output: F

input: Report whether reported LD50 is lower than 10 µmol/kg (strictly) for C[N+]1(C2CCCCC2O)CCC(c2ccccc2)CC1 (configuration not stated)
output: F

input: Report whether reported LD50 is lower than 10 µmol/kg (strictly) for OC1Cc2ccccc2CC1N1CCC(c2ccccc2)CC1 (configuration not stated)
output: T

input: Report whether reported LD50 is lower than 10 µmol/kg (strictly) for COc1ccccc1N1CCN(C2CC3CCCCC3CC2O)CC1 (racemic; 68)
output: F

input: Report whether reported LD50 is lower than 10 µmol/kg (strictly) for O[C@@H]1CCCC[C@H]1N1CCC(c2ccccc2)CC1 [VESAMICOL]
output: F

input: Report whether reported LD50 is lower than 10 µmol/kg (strictly) for OC1CC2CCCCC2CC1N1CCC(c2ccccc2)CC1 (racemic)
output: T

input: Report whether reported LD50 is lower than 10 µmol/kg (strictly) for "CO[C@H]1CCC[C@@H](N2CCC(c3ccccc3)CC2)[C@@H]1O"
output: F

input: Report whether reported LD50 is lower than 10 µmol/kg (strictly) for "CC(C)(C)[C@H]1CC[C@@H](O)[C@H](N2CCC(c3ccccc3)CC2)C1"
output: T

input: Report whether reported LD50 is lower than 10 µmol/kg (strictly) for CC(=O)Nc1cccc2c1CC(N1CCC(c3ccccc3)CC1)C(O)C2 (configuration not stated)
output: T

input: Report whether reported LD50 is lower than 10 µmol/kg (strictly) for CCC(O)CN1CCC(c2ccccc2)CC1 (configuration not stated)
output: F

input: Report whether reported LD50 is lower than 10 µmol/kg (strictly) for "O[C@H]1CCCC[C@@H]1N1CCC(c2ccccc2)CC1"
output: F

input: Report whether reported LD50 is lower than 10 µmol/kg (strictly) for CC1(O)CCCC[C@H]1N1CCC(c2ccccc2)CC1 (some centres not stated)
output: F

----------
- PROTOCOL SUMMARY: Lethal dose of the compound, when administered intraperitoneally in mice
- Type: toxicity, organism-based
- SETTINGS: mouse, in vivo, ip
For each record, write down the corresponding LD50.

input: Give LD50 for OC1CCCCC1N1CC=C(c2ccc(Cl)cc2)CC1 (stereo not drawn)
output: > 340 µmol/kg

input: Give LD50 for OC1CCCCC1N1CCC(c2ccccc2)CC1 (racemic)
output: 16 µmol/kg

input: Give LD50 for OC1CCCCC1N1CCC(Cc2ccccc2)CC1 (stereo not drawn)
output: > 180 µmol/kg

Values were extracted from ChEMBL document CHEMBL1124483.
